QUANTITY NAME: pIC50
// pIC50 here means minus log10 of the molar concentration (mol/L)

Give recorded pIC50 with Cathepsin D (Homo sapiens) for the following compound: CCCCNC(=O)[C@@H](NC(=O)[C@@H]1OCC[C@H]1[C@H](O)[C@H](CC(C)C)NC(=O)[C@H](CCSC)NC(=O)[C@H](CC(C)C)NC(C)=O)C(C)C 6.55

meta.source: BindingDB's records for doi:10.1021/jm050142+
